test system: Human B Lymphocyte cell line, SU-DHL-8; assay: Relative cell viability (CCK-8), SU-DHL-8; type: cell-based; settings: SU-DHL-8, 1 μM, 48 hours, untreated cells (DMSO) = 100%
The following molecules are shown together with reported Relative cell viability (%) values.
Assay readout: Relative cell viability (%)

INSERT INTO results (molecule, assay_readout, assay_result) VALUES
  ('Nc1ncccc1C(=O)NCCCCCCCCCCCCN1CCC(F)C1 (stereo not drawn)', 'Relative cell viability (%)', 1.70),
  ('COc1ccc(CN2CCN(CCCCCCCCCCCCNC(=O)c3cccnc3N)CC2)cc1', 'Relative cell viability (%)', 5.46),
  ('CN1CCN(C2CCN(CCCCCCCCCCCCNC(=O)c3cccnc3N)CC2)CC1', 'Relative cell viability (%)', 30.43),
  ('CN(C)C1CCN(CCCCCCCCCCCCNC(=O)c2cccnc2N)C1 (stereo not drawn)', 'Relative cell viability (%)', 8.51),
  ('Cl.Nc1ncccc1C(=O)NCCCCCCCCCCCCN1CC[C@H](N)C1', 'Relative cell viability (%)', 9.20),
  ('Nc1ncccc1C(=O)NCCCCCCCCCCCCN1CCN(Cc2ccc(F)cc2)CC1', 'Relative cell viability (%)', 6.24);

---

tested on: Human B Lymphocyte cell line, SU-DHL-8; test: Relative cell viability (CCK-8), SU-DHL-8; format: cell-based; conditions: SU-DHL-8, 30 μM, 48 hours, untreated cells (DMSO) = 100%
Assay readout: Relative cell viability (%)

INSERT INTO assay_data (compound, assay_readout, assay_result) VALUES
  ('Nc1ncccc1C(=O)NCCCCCCCCCCCCN1CCN(Cc2ccc(F)cc2)CC1 [Compound 27]', 'Relative cell viability (%)', 2.03),
  ('Nc1ncccc1C(=O)NCCCCCCCCCCCCN1CCS(=O)(=O)CC1 [Compound 25]', 'Relative cell viability (%)', 0.11),
  ('CN(C)CCN1CCN(CCCCCCCCCCCCNC(=O)c2cccnc2N)CC1 [Compound 33]', 'Relative cell viability (%)', 3.35),
  ('Cc1ccc(C2CCN(CCCCCCCCCCCCNC(=O)c3cccnc3N)CC2)cc1 [Compound 55]', 'Relative cell viability (%)', 1.10),
  ('CC1CN(CCCCCCCCCCCCNC(=O)c2cccnc2N)CC(C)O1 (stereo not drawn) [Compound 21]', 'Relative cell viability (%)', 3.70),
  ('Cc1ccc(OC2CCN(CCCCCCCCCCCCNC(=O)c3cccnc3N)CC2)cc1 [Compound 51]', 'Relative cell viability (%)', 0.89),
  ('CC1CCN(CCCCCCCCCCCCNC(=O)c2cccnc2N)C1 (stereo not drawn) [Compound 24]', 'Relative cell viability (%)', 0.62),
  ('CN1CCN(C2CCN(CCCCCCCCCCCCNC(=O)c3cccnc3N)CC2)CC1 [Compound 124]', 'Relative cell viability (%)', 32.10),
  ('COc1ccc(CN2CCN(CCCCCCCCCCCCNC(=O)c3cccnc3N)CC2)cc1 [Compound 28]', 'Relative cell viability (%)', 0.33),
  ('CN(C)C1CCN(CCCCCCCCCCCCNC(=O)c2cccnc2N)C1 (stereo not drawn) [Compound 19]', 'Relative cell viability (%)', 5.98),
  ('CC1CNCCN1CCCCCCCCCCCCNC(=O)c1cccnc1N (stereo not drawn) [Compound 35]', 'Relative cell viability (%)', 0.42),
  ('Nc1ncccc1C(=O)NCCCCCCCCCCCCN1CCC(F)C1 (stereo not drawn) [Compound 26]', 'Relative cell viability (%)', 0.05);

---

The following molecules are shown together with reported Proliferation inhibition rate (%) values.
system: T cells isolated from mouse spleens; test: T cell proliferation inhibition (CFSE flow cytometry, anti-CD3/anti-CD28 activation); type: cell-based, C57BL/6 mice; conditions: 100 nM, mouse spleen T cells, CD3/CD28 activated, cultured three days
Assay readout: Proliferation inhibition rate (%)

INSERT INTO assay_data (molecule, assay_readout, assay_result) VALUES
  ('CC1(C)CCN(CCCCCCCCCCCCNC(=O)c2cccnc2N)C1', 'Proliferation inhibition rate (%)', 100.00),
  ('CC1CCCN(CCCCCCCCCCCCNC(=O)c2cccnc2N)CC1 (stereo not shown)', 'Proliferation inhibition rate (%)', 100.00),
  ('CC(C)(C)OC(=O)NC1CCN(CCCCCCCCCCCCNC(=O)c2cccnc2N)CC1', 'Proliferation inhibition rate (%)', 100.00),
  ('CC(C)N1CCN(CCCCCCCCCCCCNC(=O)c2cccnc2N)CC1', 'Proliferation inhibition rate (%)', 100.00),
  ('CN1CCN(C2CCN(CCCCCCCCCCCCNC(=O)c3cccnc3N)CC2)CC1', 'Proliferation inhibition rate (%)', 20.00),
  ('Nc1ncccc1C(=O)NCCCCCCCCCCCCN1CCC(F)C1 (stereo not shown)', 'Proliferation inhibition rate (%)', 100.00),
  ('Nc1ncccc1C(=O)NCCCCCCCCCCCCN1CCN(C(=O)C2CC2)CC1', 'Proliferation inhibition rate (%)', 100.00),
  ('COC1CCN(CCCCCCCCCCCCNC(=O)c2cccnc2N)C1 (stereo not shown)', 'Proliferation inhibition rate (%)', 100.00),
  ('Nc1ncccc1C(=O)NCCCCCCCCCCCCN1CC=CC1', 'Proliferation inhibition rate (%)', 90.00),
  ('Nc1ncccc1C(=O)NCCCCCCCCCCCCN1CCN(Cc2ccc(F)cc2)CC1', 'Proliferation inhibition rate (%)', 83.33),
  ('Nc1ncccc1C(=O)NCCCCCCCCCCCCn1ccc2c(Cl)c(I)cnc21', 'Proliferation inhibition rate (%)', 8.48),
  ('Nc1ncccc1C(=O)NCCCCCCCCCCCCN1CC(F)(F)C1', 'Proliferation inhibition rate (%)', 0.00),
  ('CN(C)CCN1CCN(CCCCCCCCCCCCNC(=O)c2cccnc2N)CC1', 'Proliferation inhibition rate (%)', 100.00),
  ('CC1CCN(CCCCCCCCCCCCNC(=O)c2cccnc2N)C1 (stereo not shown)', 'Proliferation inhibition rate (%)', 100.00),
  ('CC1CN(C)C(CCCCCCCCCCCCNc2ccc3cncnc3n2)N1 (stereo not shown)', 'Proliferation inhibition rate (%)', 100.00),
  ('Nc1ncccc1C(=O)NCCCCCCCCCCCCNC1CCOC1 (stereo not shown)', 'Proliferation inhibition rate (%)', 100.00),
  ('CC(C)(C)OC(=O)N1CCN(CCCCCCCCCCCCNC(=O)c2cccnc2N)CC1', 'Proliferation inhibition rate (%)', 100.00),
  ('CC1CN(CCCCCCCCCCCCNC(=O)c2cccnc2N)CC(C)O1 (stereo not shown)', 'Proliferation inhibition rate (%)', 100.00),
  ('COc1ccc(CN2CCN(CCCCCCCCCCCCNC(=O)c3cccnc3N)CC2)cc1', 'Proliferation inhibition rate (%)', 100.00);

---

tested on: T cells isolated from mouse spleens; test: T cell proliferation inhibition (CFSE flow cytometry, anti-CD3/anti-CD28 activation); type: cell-based, C57BL/6 mice; conditions: 10 μM, mouse spleen T cells, CD3/CD28 activated, cultured three days
Assay readout: Proliferation inhibition rate (%)

INSERT INTO assay_data (compound, assay_readout, assay_result) VALUES
  ('Nc1ncccc1C(=O)NCCCCCCCCCCCCN1CC(F)(F)C1', 'Proliferation inhibition rate (%)', '100.00%'),
  ('Nc1ncccc1C(=O)NCCCCCCCCCCCCN1CCC(F)C1 (stereo not shown)', 'Proliferation inhibition rate (%)', '100.00%'),
  ('CN(C)CCN1CCN(CCCCCCCCCCCCNC(=O)c2cccnc2N)CC1', 'Proliferation inhibition rate (%)', '100.00%'),
  ('Nc1ncccc1C(=O)NCCCCCCCCCCCCN1CCC(Oc2ccncc2)CC1', 'Proliferation inhibition rate (%)', '100.00%'),
  ('COC1CCN(CCCCCCCCCCCCNC(=O)c2cccnc2N)CC1', 'Proliferation inhibition rate (%)', '100.00%'),
  ('C[C@H]1CNCCN1CCCCCCCCCCCCNC(=O)c1cccnc1N.Cl', 'Proliferation inhibition rate (%)', '100.00%'),
  ('Cl.Nc1ncccc1C(=O)NCCCCCCCCCCCCN1CC[C@H](N)C1', 'Proliferation inhibition rate (%)', '100.00%'),
  ('CN1CCN(CCCCCCCCCCCCNC(=O)c2cccnc2F)CC1', 'Proliferation inhibition rate (%)', '30.00%'),
  ('Nc1ncccc1C(=O)NCCCCCCCCCCCCn1ccc2c(Cl)c(I)cnc21', 'Proliferation inhibition rate (%)', '100.00%'),
  ('CN1CCN(C2CCN(CCCCCCCCCCCCNC(=O)c3cccnc3N)CC2)CC1', 'Proliferation inhibition rate (%)', '100.00%'),
  ('Nc1ncccc1C(=O)NCCCCCCCCCCCCN1CCOC1=O', 'Proliferation inhibition rate (%)', '100.00%'),
  ('Nc1ncccc1C(=O)NCCCCCCCCCCCCN1CCN(C=O)CC1', 'Proliferation inhibition rate (%)', '100.00%'),
  ('Nc1ncccc1C(=O)NCCCCCCCCCCCCN1CCN(Cc2ccc(F)cc2)CC1', 'Proliferation inhibition rate (%)', '100.00%'),
  ('CC1CN(C)C(CCCCCCCCCCCCNc2ccc3cncnc3n2)N1 (stereo not shown)', 'Proliferation inhibition rate (%)', '100.00%'),
  ('CN(C)C1CCN(CCCCCCCCCCCCNC(=O)c2cccnc2N)C1 (stereo not shown)', 'Proliferation inhibition rate (%)', '100.00%'),
  ('CC1CN(CCCCCCCCCCCCNC(=O)c2cccnc2N)C(C)CN1.Cl (stereo not shown)', 'Proliferation inhibition rate (%)', '100.00%'),
  ('CC(C)(C)OC(=O)N1CCN(CCCCCCCCCCCCNC(=O)c2cccnc2N)CC1', 'Proliferation inhibition rate (%)', '100.00%'),
  ('COC1CCN(CCCCCCCCCCCCNC(=O)c2cccnc2N)C1 (stereo not shown)', 'Proliferation inhibition rate (%)', '100.00%'),
  ('Nc1ncccc1C(=O)NCCCCCCCCCCCCN1CCC2CCCCC2C1 (stereo not shown)', 'Proliferation inhibition rate (%)', '100.00%');
